# Tested on: MYLK
# assay_setup: concentration: 1 μM,replicates: in singlicate; n = 1;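 also: KINOMEscan kinase panel screen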
Decide using %Inh alone. Strictly below 4%: satisfied. Equal to or above 4%: not satisfied.

compound	label_value
CNC(=O)c1ccccc1Nc1nc(Nc2cccc(CS(C)(=O)=O)c2)ncc1C.O=CO	not satisfied
c1ccc(Oc2ccc(Nc3ccnc4ccc(-c5ccccn5)cc34)cc2)cc1	not satisfied
Cc1ccn2nc(-c3ccc(F)cc3)c(-c3ccncc3)c2c1.Cl	not satisfied

Consider "Cl.c1ccc(Oc2ccc(Nc3ccnc4cc(-c5ccc(CN6CCNCC6)o5)ccc34)cc2)nc1" . Does its %Inh lie strictly below 4%?
satisfied

Please determine if "NC(=O)c1ccc(-c2cc3ncnc(SCC(=O)O)c3s2)cc1" is below 4% in terms of %Inh.
satisfied

Hello, I'm reviewing records and need to know if %Inh of "Cc1ccc(CC(=O)N2CCc3cc(-c4cn(C)c5ncnc(N)c45)ccc32)cc1" is below 4%. Could you check?
satisfied

Hi there! Is %Inh for "O=C(Nc1cccc(Oc2ccc3nccn3n2)c1)Nc1cccc(C(F)(F)F)c1" below 4%, do you know?
satisfied

Lab log: compare recorded %Inh with 4%; is it strictly lower for "CN(c1ccccc1CNc1nc(Nc2ccc3c(c2)CC(=O)N3)ncc1C(F)(F)F)S(C)(=O)=O" ?
satisfied

Lab note: confirm whether the reported %Inh for this compound is below 4%, equality not counting. compound: "Cl.Cl.NC[C@H](CC1CCCCC1)NC(=O)c1ccc(-c2ccnc3[nH]ccc23)s1"
not satisfied

Answer whether the compound "CCCC(=O)Nc1n[nH]c2ncccc12" has %Inh strictly less than 4%
satisfied

Is %Inh strictly under 4% for the entry "CN(c1cccc(CNc2nc(Nc3ccc4c(c3)CC(=O)N4)ncc2C(F)(F)F)c1)S(C)(=O)=O" ?
satisfied

I wonder whether "CS(=O)(=O)c1cccc(CNc2nc(Nc3ccc4c(c3)[C@@H]3C[C@@H]4CNC3=O)ncc2C(F)(F)F)c1" has %Inh below 4%. Can you tell?
not satisfied

Identify whether the compound "Cn1cc(-c2cccc3c(N)c(C(N)=O)nnc23)cn1" records %Inh below 4%.
not satisfied

Report whether reported %Inh is lower than 4% (strictly) for Cc1nnc(-c2ccc3occ(-c4ccc(S(C)=O)cc4)c3n2)o1 (centres unmarked)
satisfied

Check if %Inh falls below 4% for "CCOC(=O)N1CCC(n2cnc(-c3ccc(F)cc3)c2-c2ccnc(N)n2)CC1" .
not satisfied

Quick check: %Inh of "O=C(Nc1ccccc1)c1cccc(Oc2ccc3nccn3n2)c1" under 4%?
satisfied

###

# Tested on: PDGFRB
# assay_setup: concentration: 1 μM,replicates: in singlicate; n = 1
assay_metric: %Inh (%)
Numbers only, in %.

Below, 5 compounds whose answers are already recorded.
compound	units_label	%Inh
CN(c1cccc(CNc2nc(Nc3ccc4c(c3)CC(=O)N4)ncc2C(F)(F)F)c1)S(C)(=O)=O	%	72
CN(c1ccccc1CNc1nc(Nc2ccc3c(c2)CC(=O)N3)ncc1C(F)(F)F)S(C)(=O)=O	%	83
COC(=O)c1cccc(NC(=O)NC2CCN(c3ccnc(Nc4cc(OC)c(OC)c(OC)c4)n3)C2)c1 (stereo not drawn)	%	65
C[C@@H]1CCN(C(=O)N2CCCC2)C[C@@H]1N(C)c1ncnc2[nH]ccc12	%	19
COc1cc2nccc(Nc3ccc(Oc4ccccc4)cc3)c2cc1OC.Cl	%	92

Now for another entry.
So what does the record say about %Inh for "O=C(NCC1CC1)c1ccc(-c2cc(C(=O)NC3CC3)ccc2F)cc1" ?
0

###

# Test system: EGFR
# assay_setup: concentration: 1 μM,replicates: in singlicate; n = 1
assay_metric: %Inh (%)
Give bare numbers, in %.

Solved entries (count: 5):
compound	%Inh [%]
C[C@@H](Oc1cc(-n2cnc3cc(-c4ccncc4)ccc32)sc1C(N)=O)c1ccccc1Cl	28
COC(=O)Nc1nc2cc(Oc3ccc(NC(=O)Nc4cc(C(F)(F)F)ccc4Cl)cc3)ccc2[nH]1.Cl	42
CS(=O)(=O)Nc1ccc(-c2ccnc3[nH]ccc23)cc1	17
Cn1ccc2ncnc(Oc3ccc(NC(=O)Nc4cccc(C(F)(F)F)c4)c(Cl)c3)c21	5
COC(=O)c1cccc(NC(=O)NC2CCN(c3ccnc(Nc4cc(OC)c(OC)c(OC)c4)n3)C2)c1 (centres unmarked)	33

Give %Inh for each listed item.
1. CCn1c(-c2nonc2N)nc2cncc(Br)c21
2. Cl.Nc1n[nH]c2cc(-c3ccccn3)ccc12
3. CCNCC(Cc1ccccc1)NC(=O)c1cc(Br)c(-c2ccnc3[nH]ccc23)s1.Cl.Cl (centres unmarked)
4. C[C@@H]1CCN(C(=O)N2CCCC2)C[C@@H]1N(C)c1ncnc2[nH]ccc12
5. CN(c1ccc2c(c1)nc(NCc1ccc(F)cc1)n2C)c1ccnc(Nc2ccc(CS(C)(=O)=O)cc2)n1.Cl

1: 15; 2: 38; 3: 28; 4: 0; 5: 18

// batch mode: one %Inh value per listed entry
1. Cn1ccc2ncnc(Oc3ccc(NC(=O)Nc4cnn(C(C)(C)C)c4)c(Cl)c3)c21
2. CCOC(=O)N1CCC(n2cnc(-c3ccc(F)cc3)c2-c2ccnc(N)n2)CC1
3. CN1CCN(CCCNc2nccc(-c3c(-c4ccc(F)cc4)nn4cc(C(N)=O)ccc34)n2)CC1
4. CCN1CCN(CCCC(=O)Nc2n[nH]c3nc(-c4ccc(O)cc4)c(Br)cc23)CC1
5. CCCC(=O)Nc1n[nH]c2ncccc12

1: 25; 2: 32; 3: 38; 4: 0; 5: 11

Report %Inh for every entry below.
1. CN(c1cccc(CNc2nc(Nc3ccc4c(c3)CC(=O)N4)ncc2C(F)(F)F)c1)S(C)(=O)=O
2. CC(C)S(=O)(=O)N1CCN(Cc2ccc3c(c2)nc(NC(=O)c2ccsc2)n3C[C@H](O)c2ccccc2)CC1

1. 3
2. 20

###

I'd appreciate it if you could supply %Inh values for the items below.
# Tested on: CSK
# assay_setup: concentration: 1 μM,replicates: in singlicate; n = 1
Numbers only, in %.

// worked examples, %Inh included
compound	%Inh, %
CC(=O)Nc1nc2cnc(Nc3cc(NC(=O)c4cccc(CC(C)(C)C#N)c4)ccc3C)nc2s1	7
C[C@@H](Oc1cc(-n2cnc3cc(-c4ccncc4)ccc32)sc1C(N)=O)c1ccccc1Cl [GSK479719]	0
CN(c1cccc(CNc2nc(Nc3ccc4c(c3)CC(=O)N4)ncc2C(F)(F)F)c1)S(C)(=O)=O	0

Field: next compound
// fetch CSK %Inh for COc1cc(Nc2nccc(N3CCC(NC(=O)c4cccc(C#N)c4)C3)n2)cc(OC)c1OC (stereo not shown) [GSK1379751]
0

###

# Test system: NEK7
# assay_setup: concentration: 1 μM,replicates: in singlicate; n = 1
Please respond with reported %Inh for every item in the list.
One number for each entry, in %.

molecule	assay_system	assay_metric	val
O=C(Nc1ccccc1)c1cccc(Oc2ccc3nccn3n2)c1	NEK7	%Inh	0
CC(C)S(=O)(=O)N1CCN(Cc2ccc3c(c2)nc(NC(=O)c2ccsc2)n3C[C@H](O)c2ccccc2)CC1	NEK7	%Inh	0
COc1cc2nccc(Nc3ccc(Oc4ccccc4)cc3)c2cc1OC.Cl	NEK7	%Inh	0
CCN1CCN(CCCC(=O)Nc2n[nH]c3nc(-c4ccc(O)cc4)c(Br)cc23)CC1	NEK7	%Inh	5
COC(=O)Nc1nc2cc(Oc3ccc(NC(=O)Nc4cc(C(F)(F)F)ccc4Cl)cc3)ccc2[nH]1.Cl	NEK7	%Inh	0
C[C@@H](Oc1cc(-n2cnc3ccc(-c4ccncc4)cc32)sc1C(N)=O)c1ccccc1Cl	NEK7	%Inh	17
CC(C)c1nc(-c2cccc(NS(=O)(=O)c3ccccc3)c2)c(-c2ccnc(Nc3ccc4c(c3)CN(C)CC4)n2)s1	NEK7	%Inh	0
O=C1NCCc2[nH]c(-c3ccncc3)cc21	NEK7	%Inh	0
Cl.Nc1n[nH]c2cc(-c3ccccn3)ccc12	NEK7	%Inh	0
Cn1cc(-c2cccc3c(N)c(C(N)=O)nnc23)cn1	NEK7	%Inh	0

# map each molecule to its %Inh
1. COc1cc2c(Nc3ccc(NC(=O)c4ccccc4)cc3)ncnc2cc1OCCCN1CCOCC1
2. CN(c1cccc(CNc2nc(Nc3ccc4c(c3)CC(=O)N4)ncc2C(F)(F)F)c1)S(C)(=O)=O

0
0

###

# System: ABL1-nonphosphorylated
# assay_setup: concentration: 1 μM,replicates: in singlicate; n = 1
assay_metric: %Inh (%)
One number for each entry, in %.

Some compounds with recorded %Inh:
compound	assay_system	%Inh [%]
NC(=O)c1ccc(-c2cc3ncnc(SCC(=O)O)c3s2)cc1	ABL1-nonphosphorylated	57
O=c1[nH]cc(-c2ccc(O)cc2)c2sc(-c3ccncc3)cc12	ABL1-nonphosphorylated	0
Cn1ccc2ncnc(Oc3ccc(NC(=O)Nc4cnn(C(C)(C)C)c4)c(Cl)c3)c21	ABL1-nonphosphorylated	87
FC(F)(F)c1cc(Br)cc(Nc2nccc(-c3cnn4ncccc34)n2)c1	ABL1-nonphosphorylated	0

State the recorded %Inh for every item in the following list.
1. NC(=O)Nc1sc(-c2ccc(F)cc2)cc1C(N)=O
2. Cc1nnc(-c2ccc3occ(-c4ccc(S(C)=O)cc4)c3n2)o1 (stereo not drawn)
3. C[C@@H](Oc1cc(-n2cnc3ccc(-c4ccncc4)cc32)sc1C(N)=O)c1ccccc1Cl
4. CC(C)c1nc(-c2cccc(NS(=O)(=O)c3ccccc3)c2)c(-c2ccnc(Nc3ccc4c(c3)CN(C)CC4)n2)s1
5. CS(=O)(=O)Nc1ccc(-c2ccnc3[nH]ccc23)cc1
6. Cn1ccc2ncnc(Oc3ccc(NC(=O)Nc4cccc(C(F)(F)F)c4)c(F)c3)c21

1: 49; 2: 43; 3: 0; 4: 99.8; 5: 0; 6: 88

# return %Inh for each item in the list
1. Cc1n[nH]c2cc(Nc3ccnc(Nc4cccc(CN5CCOCC5)c4)n3)ccc12
2. COC(=O)c1cccc(NC(=O)NC2CCN(c3ccnc(Nc4cc(OC)c(OC)c(OC)c4)n3)C2)c1 (stereo not drawn)
3. CSc1nccc(-c2c(-c3ccc(F)cc3)ncn2CCCN2CCOCC2)n1.Cl
4. CN(c1cccc(CNc2nc(Nc3ccc4c(c3)CC(=O)N4)ncc2C(F)(F)F)c1)S(C)(=O)=O
5. CC(=O)c1c(-c2ccncc2)[nH]c(-c2ccncc2)c1C
6. CCCC(=O)Nc1n[nH]c2ncccc12
7. COC(=O)Nc1nc2cc(Oc3ccc(NC(=O)Nc4cc(C(F)(F)F)ccc4Cl)cc3)ccc2[nH]1.Cl

1. 22
2. 0
3. 35
4. 46
5. 0
6. 24
7. 97

// lookup %Inh for "COc1cc2nccc(Nc3ccc(Oc4ccccc4)cc3)c2cc1OC.Cl"
89
